- study system: GluCl α&β (Caenorhabditis elegans, UniProt G5EBR3+Q17328)
- Construct: the full-length open reading frame of the GluCl cDNA encoding the GluClα (52,550 kDa) and GluClβ (49,900kDa) subunits; expressed in transfected cells; host or cells: Xenopus laevis oocytes injected with in vitro RNA
- Sequence (G5EBR3 21-461, one chain of several): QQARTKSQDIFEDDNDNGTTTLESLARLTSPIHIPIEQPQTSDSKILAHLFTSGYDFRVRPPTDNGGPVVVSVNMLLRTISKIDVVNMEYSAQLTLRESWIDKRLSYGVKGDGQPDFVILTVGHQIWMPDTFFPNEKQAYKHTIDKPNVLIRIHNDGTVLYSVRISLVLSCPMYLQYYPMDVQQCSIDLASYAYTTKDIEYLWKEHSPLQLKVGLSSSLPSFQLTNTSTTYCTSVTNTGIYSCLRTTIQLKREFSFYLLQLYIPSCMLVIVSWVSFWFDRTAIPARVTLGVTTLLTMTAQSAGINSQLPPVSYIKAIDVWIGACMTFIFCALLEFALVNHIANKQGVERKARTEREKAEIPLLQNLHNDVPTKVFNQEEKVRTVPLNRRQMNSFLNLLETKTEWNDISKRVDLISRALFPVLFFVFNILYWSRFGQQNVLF
- experiment summary: Agonist activation of current in Xenopus oocytes injected with GluClα and GluClβ RNA (two-microelectrode voltage clamp)
- Assay type: cell-based, C. elegans
readout: activation of current / sensitivity of coexpressed GluCl α&β

NCCCC(=O)O [GABA] ... insensitivity
NCC(=O)O [Glycine] ... insensitivity

====

- study system: GluClβ (Caenorhabditis elegans, UniProt Q17328)
- Construct: the full-length open reading frame of the GluCl cDNA encoding the GluClα (52,550 kDa) and GluClβ (49,900kDa) subunits
- Sequence (Q17328 23-434): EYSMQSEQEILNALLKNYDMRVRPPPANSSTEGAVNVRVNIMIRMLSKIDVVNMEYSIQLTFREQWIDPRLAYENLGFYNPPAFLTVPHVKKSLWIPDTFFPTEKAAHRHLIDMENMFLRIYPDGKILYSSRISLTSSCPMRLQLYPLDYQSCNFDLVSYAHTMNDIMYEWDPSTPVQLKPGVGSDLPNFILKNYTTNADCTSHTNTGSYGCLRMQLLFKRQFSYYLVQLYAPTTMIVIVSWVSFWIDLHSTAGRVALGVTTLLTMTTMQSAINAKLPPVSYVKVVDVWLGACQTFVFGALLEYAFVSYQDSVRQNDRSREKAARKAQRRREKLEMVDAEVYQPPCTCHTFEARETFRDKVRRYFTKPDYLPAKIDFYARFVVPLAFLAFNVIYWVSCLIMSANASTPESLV
- experiment summary: Activation of current in Xenopus oocytes expressing homomeric GluClβ (voltage clamp)
- experimental parameters: read-out: EC50 for glutamate; GluClβ alone
readout: EC50 (µM)
Give bare numbers, in µM.

Give the reported EC50 for this compound. N[C@@H](CCC(=O)O)C(=O)O [glutamate] 380
